biological target: NAMPT (Homo sapiens); experiment: Time-Resolved Fluorescence Resonance Energy Transfer (TR-FRET) Binding Assay of NAMPT; details: 6.8 nM NAMPT, 200 nM probe, equilibrated 3 hours, no substrates
measured-property: IC50 (nM)

# count of solved cases: 2
{"columns": ["molecule", "uom", "IC50"],
 "data": [
  ["O=C(Nc1ccc(OC2CN(C(=O)C3CCCCC3)C2)cc1)N1CC(c2cccnc2)C1", "nM", 14.4],
  ["O=C(Nc1ccc(O[C@@H]2CCN(C(=O)c3cccs3)C2)cc1)N1CC(c2cccnc2)C1", "nM", 20.7]
]}

(P) CCCC(C)C(=O)N1CC(Oc2ccc(NC(=O)N3CC(c4cccnc4)C3)cc2)C1 (centres unmarked)
(Q) O=C(CN1CCOCC1)N1CC(c2ccc(NC(=O)N3CC(c4cccnc4)C3)cc2)C1
(R) CCCn1cc(-c2ccc(NC(=O)N3CC(c4cccnc4)C3)cc2)cn1
IN: Number of molecules to sort: 3. Sort criterion: IC50, ascending. Order the labels as requested and give them as your answer.
OUT: P, R, Q
(P: 15 nM, R: 26.3 nM, Q: 152 nM)

---

Target: NAMPT (Homo sapiens, UniProt P43490)
Sequence (P43490 whole entry): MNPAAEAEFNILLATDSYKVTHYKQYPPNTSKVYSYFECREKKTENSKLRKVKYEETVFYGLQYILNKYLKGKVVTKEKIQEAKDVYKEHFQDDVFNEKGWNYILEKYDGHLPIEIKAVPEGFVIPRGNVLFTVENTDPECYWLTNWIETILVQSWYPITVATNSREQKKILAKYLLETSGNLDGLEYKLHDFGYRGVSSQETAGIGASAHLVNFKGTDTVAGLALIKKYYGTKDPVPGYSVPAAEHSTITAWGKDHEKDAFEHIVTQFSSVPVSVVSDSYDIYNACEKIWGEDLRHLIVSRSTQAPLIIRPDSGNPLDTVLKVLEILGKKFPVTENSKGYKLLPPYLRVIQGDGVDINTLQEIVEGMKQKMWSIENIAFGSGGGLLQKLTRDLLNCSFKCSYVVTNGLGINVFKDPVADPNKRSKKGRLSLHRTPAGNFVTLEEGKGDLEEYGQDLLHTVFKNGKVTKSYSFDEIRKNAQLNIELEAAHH
Assay: Time-Resolved Fluorescence Resonance Energy Transfer (TR-FRET) Binding Assay of NAMPT
Conditions: 6.8 nM NAMPT, 200 nM probe, equilibrated 3 hours, no substrates
Procedure: Determination of the utility of compounds having Formula (I) as binders to and inhibitors of NAMPT was performed using Time-Resolved Fluorescence Resonance Energy Transfer (TR-FRET) binding assays. Time-Resolved Fluorescence Resonance Energy Transfer (TR-FRET) Binding Assay of NAMPT Six L were transferred to 384-well low-volume plates ([…] #3673). To this, 12 L of a 1.5× solution containing enzyme, probe and antibody were added. […]
measured-property: IC50 (nM)

{"columns": ["compound", "measured-property", "uom", "numeric-readout"],
 "data": [
  ["COCC(=O)N1CC=C(c2ccc(NC(=O)N3CC(c4cccnc4)C3)cc2)CC1 [Example 20]", "IC50", "nM", 68.4],
  ["CC(=O)N[C@@H](CC(C)C)C(=O)N1CC[C@@H](Oc2ccc(NC(=O)N3CC(c4cccnc4)C3)cc2)C1 [Example 318]", "IC50", "nM", 125],
  ["O=C(Nc1ccc(O[C@@H]2CCN(C(=O)C3CCCC3)C2)cc1)N1CC(c2cccnc2)C1 [Example 334]", "IC50", "nM", 94.9]
]}

---

molecular target: NAMPT (Homo sapiens, UniProt P43490); assay: Time-Resolved Fluorescence Resonance Energy Transfer (TR-FRET) Binding Assay of NAMPT; conditions: 6.8 nM NAMPT, 200 nM probe, equilibrated 3 hours, no substrates
measured-property: IC50 (nM)

{"columns": ["molecule", "measured-property", "uom", "numeric-readout"],
 "data": [
  ["O=C(CC1CCOCC1)N1CC(c2ccc(NC(=O)N3CC(c4cccnc4)C3)cc2)C1 [Example 100]", "IC50", "nM", 108],
  ["O=C(CC1CC1)N1CCC(c2ccc(NC(=O)N3CC(c4cccnc4)C3)cc2)C1 (centres unmarked) [Example 69]", "IC50", "nM", 44.8],
  ["CCCCC(=O)N1CC[C@@H](Oc2ccc(NC(=O)N3CC(c4cccnc4)C3)cc2)C1 [Example 297]", "IC50", "nM", 56.6]
]}

(a) O=C(Nc1ccc(OC2CN(C(=O)c3ccco3)C2)cc1)N1CC(c2cccnc2)C1 [Example 115]
(b) O=C(CC1CCCC1)N1CC(c2ccc(NC(=O)N3CC(c4cccnc4)C3)cc2)C1 [Example 229]
(c) O=C(CCN1CCCC1)N1CCC(Oc2ccc(NC(=O)N3CC(c4cccnc4)C3)cc2)CC1 [Example 39]
IN: Order the records, beginning with the lowest IC50 and ending with the highest. Rank the items, then write their labels in that order.
OUT: a, b, c
(a: 9.22 nM, b: 40.3 nM, c: 90.5 nM)
